measured.target: PI3Kalpha (Homo sapiens, UniProt P42336)
Construct: His (N); host or cells: SF9 cells (baculovirus)
Sequence (P42336 whole entry): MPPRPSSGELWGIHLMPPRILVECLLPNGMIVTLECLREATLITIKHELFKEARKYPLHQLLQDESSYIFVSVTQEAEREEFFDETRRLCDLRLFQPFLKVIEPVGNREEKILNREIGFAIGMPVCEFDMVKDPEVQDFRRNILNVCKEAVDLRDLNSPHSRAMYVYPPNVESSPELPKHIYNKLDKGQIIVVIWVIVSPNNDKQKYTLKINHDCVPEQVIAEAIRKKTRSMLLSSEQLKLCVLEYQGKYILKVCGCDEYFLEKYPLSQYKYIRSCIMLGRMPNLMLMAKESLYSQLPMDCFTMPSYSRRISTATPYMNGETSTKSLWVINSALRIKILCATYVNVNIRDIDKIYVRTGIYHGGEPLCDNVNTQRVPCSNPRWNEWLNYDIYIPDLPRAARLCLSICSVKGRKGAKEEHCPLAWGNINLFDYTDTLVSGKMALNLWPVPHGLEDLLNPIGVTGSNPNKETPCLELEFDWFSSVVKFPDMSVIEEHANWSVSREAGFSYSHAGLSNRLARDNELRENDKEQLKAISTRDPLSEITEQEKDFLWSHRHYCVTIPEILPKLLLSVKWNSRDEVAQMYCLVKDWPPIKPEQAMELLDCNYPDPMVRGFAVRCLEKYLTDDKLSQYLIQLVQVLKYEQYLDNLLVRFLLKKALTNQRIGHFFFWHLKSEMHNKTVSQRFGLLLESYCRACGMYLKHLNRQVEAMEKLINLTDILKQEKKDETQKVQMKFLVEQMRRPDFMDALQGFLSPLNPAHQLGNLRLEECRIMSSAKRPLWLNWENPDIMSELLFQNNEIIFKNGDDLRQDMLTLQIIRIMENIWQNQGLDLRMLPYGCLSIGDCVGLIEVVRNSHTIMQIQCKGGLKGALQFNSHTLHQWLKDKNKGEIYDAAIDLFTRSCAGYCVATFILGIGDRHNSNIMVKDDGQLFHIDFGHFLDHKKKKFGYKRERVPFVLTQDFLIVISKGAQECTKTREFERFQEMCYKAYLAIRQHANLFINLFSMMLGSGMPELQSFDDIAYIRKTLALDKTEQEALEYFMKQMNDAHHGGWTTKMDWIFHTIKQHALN
Sequence (P27986 whole entry partner): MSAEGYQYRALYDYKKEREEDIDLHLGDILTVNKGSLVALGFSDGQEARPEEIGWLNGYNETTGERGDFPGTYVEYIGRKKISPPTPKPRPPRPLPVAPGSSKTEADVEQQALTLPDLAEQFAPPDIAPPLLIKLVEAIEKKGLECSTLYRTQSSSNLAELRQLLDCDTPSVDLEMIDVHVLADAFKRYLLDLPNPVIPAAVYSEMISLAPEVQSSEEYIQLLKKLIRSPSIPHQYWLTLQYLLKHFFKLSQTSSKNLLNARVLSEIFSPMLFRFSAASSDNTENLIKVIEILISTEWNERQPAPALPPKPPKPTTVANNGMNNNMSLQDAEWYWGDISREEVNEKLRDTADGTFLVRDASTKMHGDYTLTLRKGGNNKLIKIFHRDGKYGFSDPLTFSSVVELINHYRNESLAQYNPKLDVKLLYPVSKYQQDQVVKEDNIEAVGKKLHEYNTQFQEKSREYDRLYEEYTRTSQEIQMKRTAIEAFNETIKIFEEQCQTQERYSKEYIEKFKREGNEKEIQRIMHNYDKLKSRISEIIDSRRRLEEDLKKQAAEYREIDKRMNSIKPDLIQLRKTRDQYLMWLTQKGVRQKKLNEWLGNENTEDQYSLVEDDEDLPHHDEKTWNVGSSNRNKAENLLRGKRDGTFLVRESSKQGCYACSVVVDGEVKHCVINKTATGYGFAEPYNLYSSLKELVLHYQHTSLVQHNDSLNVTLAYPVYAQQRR
protocol.notes: Human PI3K alpha enzyme assay (HTRF)
Type: biochemical
setup.conditions: concentration not given; read-out: p110 alpha Percent Inhibition
measured.parameter: inhibition at 1.1 µM (%)

Some solved entries appear below for comparison.
INSERT INTO assay_data (molecule, obs_value) VALUES
  ('COC(c1ccc2ccccc2c1)c1c(C(=O)O)sc(N2CCOCC2)c1C#N (stereo not drawn)', 14),
  ('NCc1c[nH]c(-c2sc(-c3ccncc3)nc2Cc2ccc(Cl)cc2)n1', 0),
  ('N#Cc1c(N2CCOCC2)sc(C(=O)O)c1C(F)(F)c1ccc2ccccc2c1', 41),
  ('N#Cc1c(N2CCOCC2)sc(-c2nnn[nH]2)c1C(F)(F)c1ccc2ccccc2c1', 43),
  ('N#Cc1c(N2CCOCC2)sc(C(=O)O)c1Cc1cc(F)c2ccccc2c1', 107);

I. COc1cccc(C(O)c2cc(-c3ccncc3)sc2-c2nnc[nH]2)c1 (stereo not drawn)
II. N#Cc1c(N2CCOCC2)sc(C(=O)O)c1Cc1ccc2c(F)cccc2c1
III. N#Cc1c(N2CCOCC2)sc(C(=O)O)c1Cc1cc(F)c(Cl)cc1F
List the 3 entries from lowest inhibition at 1.1 µM to highest inhibition at 1.1 µM value. To answer, write out the labels according to the requested order.
I, III, II

A. N#Cc1c(N2CCOCC2)sc(C(=O)O)c1Cc1ccc2ccc(F)cc2c1
B. N#Cc1c(N2CCOCC2)sc(C(=O)O)c1Cc1ccc2c(c1)CCCC2
Lab note: record which item had the higher inhibition at 1.1 µM, A or B . Lab note: record the label of whichever item you select.
A

a. N#Cc1c(N2CCOCC2)sc(C(=O)O)c1Cc1cc2ccccc2cc1F
b. OC(c1cc(Br)cs1)c1cc(-c2ccncc2)sc1-c1nnc[nH]1 (stereo not drawn)
Lab note: record which item had the higher inhibition at 1.1 µM, a or b . Lab note: record the label of whichever item you select.
a
(a: 101%, b: 61%)

* * *

measured.target: PI3K gamma (Homo sapiens)
Construct: His (N); host or cells: SF9 cells (baculovirus)
Sequence (P48736 whole entry): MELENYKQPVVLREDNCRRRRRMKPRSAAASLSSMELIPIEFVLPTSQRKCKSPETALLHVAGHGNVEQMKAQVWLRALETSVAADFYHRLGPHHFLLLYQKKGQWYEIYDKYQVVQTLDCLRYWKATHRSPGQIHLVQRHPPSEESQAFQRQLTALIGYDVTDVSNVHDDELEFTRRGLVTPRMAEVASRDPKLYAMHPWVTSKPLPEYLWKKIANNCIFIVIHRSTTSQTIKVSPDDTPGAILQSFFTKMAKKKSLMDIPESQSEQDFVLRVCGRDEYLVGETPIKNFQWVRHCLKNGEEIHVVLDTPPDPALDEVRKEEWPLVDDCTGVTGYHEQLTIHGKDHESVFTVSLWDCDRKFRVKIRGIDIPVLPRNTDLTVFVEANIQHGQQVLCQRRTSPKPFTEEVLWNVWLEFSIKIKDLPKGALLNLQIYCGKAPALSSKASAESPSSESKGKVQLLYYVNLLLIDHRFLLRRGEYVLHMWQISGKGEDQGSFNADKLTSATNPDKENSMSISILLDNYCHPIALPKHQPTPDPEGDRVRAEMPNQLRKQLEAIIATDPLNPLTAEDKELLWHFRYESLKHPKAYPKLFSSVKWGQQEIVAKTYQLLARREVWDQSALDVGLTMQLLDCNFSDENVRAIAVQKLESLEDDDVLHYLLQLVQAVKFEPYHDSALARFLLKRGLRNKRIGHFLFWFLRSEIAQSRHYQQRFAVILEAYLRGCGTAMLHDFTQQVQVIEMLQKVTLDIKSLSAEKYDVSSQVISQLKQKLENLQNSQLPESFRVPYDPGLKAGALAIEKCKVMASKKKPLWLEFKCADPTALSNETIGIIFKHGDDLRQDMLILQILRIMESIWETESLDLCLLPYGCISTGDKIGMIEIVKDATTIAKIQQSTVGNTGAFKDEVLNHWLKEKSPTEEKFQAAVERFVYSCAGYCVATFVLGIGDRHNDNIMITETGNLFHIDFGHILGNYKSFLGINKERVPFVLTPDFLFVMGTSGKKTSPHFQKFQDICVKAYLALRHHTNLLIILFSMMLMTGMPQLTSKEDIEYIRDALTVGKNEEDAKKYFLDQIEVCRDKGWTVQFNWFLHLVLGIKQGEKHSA
protocol.notes: Human PI3K gamma enzyme assay (HTRF)
Assay type: biochemical
setup.conditions: concentration not given; b1433 gives 1.0 μM for PI3K δ and γ; read-out: p110 gamma Percent Inhibition
measured.parameter: inhibition at 1 µM (%)

Some solved entries appear below for comparison.
INSERT INTO assay_data (compound, units_label, obs_value) VALUES
  ('N#Cc1c(N2CCOCC2)sc(C(=O)O)c1C(F)c1ccc2ccccc2c1 (stereo not shown)', '%', 62),
  ('c1ccc2cc(Cc3nc(N4CCOCC4)sc3-c3nnn[nH]3)ccc2c1', '%', 49),
  ('N#Cc1c(N2CCOCC2)sc(C(=O)O)c1Cc1ccc2c(F)cccc2c1', '%', 67),
  ('N#Cc1c(N2CCOCC2)sc(C(=O)O)c1Cc1cc(F)c2ccccc2c1', '%', 67);

I. N#Cc1c(N2CCOCC2)sc(C(=O)O)c1Cc1ccc2ccc(F)cc2c1
II. COC(c1ccc2ccccc2c1)c1c(C(=O)O)sc(N2CCOCC2)c1C#N (stereo not shown)
III. NCc1c[nH]c(-c2sc(-c3ccncc3)nc2Cc2ccc(Cl)cc2)n1
Order the 3 compounds from highest to lowest inhibition at 1 µM. To answer, write out the labels according to the requested order.
I, II, III
(I: 69%, II: 11%, III: 5%)
